Test system: MCF7 breast
Assay: NCI-60 one-dose screen, 48 h
Conditions: 10 µM unless noted
About 83,000 compounds went through this panel and 20% of them were active in at least one assay; those are over-represented in the sample as a whole. Active and inactive are the calls of the source. The calls were made as follows: active = growth percent below 10; inactive = the rest.
API: response.call in active, inactive

{"compound": "O=c1c2ccccc2n2cnc3ccc(Cl)c1c32", "label": "inactive"}
{"compound": "O=C1/C(=C/c2ccccc2O)CC/C1=C\\c1ccccc1O", "label": "inactive"}
{"compound": "CCCCCCC12CCC(=O)N1CCc1cncn12 (stereo unspecified)", "label": "inactive"}
{"compound": "CC1(C)COB(OCC(C)(C)COB2OCC(C)(C)CO2)OC1", "label": "inactive"}
{"compound": "Nc1c(C(=O)Nc2ccccc2C(F)(F)F)sc2nc3c(cc12)CCC3", "label": "inactive"}

Entry `CSc1nnc(-c2cc3c([nH]c4ccccc43)c(-c3cccc(O)c3)n2)n1-c1ccccc1` : call = ?
inactive

Entry `O=C(/C=C/c1cccc(Cl)c1)c1cccc(OCCCOc2cccc(C(=O)/C=C/c3cccc(Cl)c3)c2)c1` : call = ?
inactive

Entry CCO/C=N/C1=C(C#N)C(c2ccc(Cl)cc2)c2sc3c(F)cccc3c2O1 (stereo unspecified) : call = ?
inactive

Entry O=C1NC(=O)C(Cc2ccc(OCc3ccc(-c4ccc(Cl)cc4Cl)cc3)cc2)S1 (stereo unspecified) : call = ?
inactive

Entry `CCOC(=O)c1c2c(n3cccc(F)c13)C(=O)c1ncccc1C2=O` : call = ?
active

Entry `N#C/C(=C\c1c(-c2ccccc2)[nH]c2ccccc12)C(N)=O` : call = ?
inactive

Entry `Cc1ccc2c(n1)C(=O)C(Br)=C(CC(C)C)C2=O` : call = ?
inactive

Entry `COc1cc(/C=C2/C=C(c3ccccc3)N(CCc3ccc(S(N)(=O)=O)cc3)C2=O)cc(OC)c1OC` : call = ?
inactive

----------
Tested on: CAKI-1 renal
Assay: NCI-60 one-dose screen, 48 h
Details: 10 µM unless noted
Compounds without any hit were thinned out: in the full panel of roughly 83,000, 20% have a hit. The source made the active and inactive calls. Rule for the calls: active = growth percent below 10; inactive = the rest.
API: response.call in active, inactive

Worked examples, 2 compounds total:
{"structure-smiles-string": "COc1cc2ncnc(Nc3ccc(F)c(Cl)c3)c2cc1OCC(=O)N1CCN(c2ccccc2)CC1", "label": "inactive"}
{"structure-smiles-string": "COc1ccc(-c2ccc(=O)oc2-c2cc(OC)c(OC)c(OC)c2)cc1O", "label": "active"}

Entry `c1cnc2c(-c3nc4ccc5[nH]ncc5c4c4c3CCCC4)c[nH]c2c1` : call = ?
inactive

Entry `CN(C)CC(C)(C)C(=O)/C=C/c1ccccc1` : call = ?
active

Entry `CCOC(=O)c1ccc2c(c1)nc(-c1ccccc1)n2C1CCCCC1` : call = ?
inactive

----------
Can you tell me growth for the items I'm about to list?
Test system: DU-145 prostate
Assay: NCI-60 one-dose screen, 48 h (100 = growth as untreated, 0 = no growth, -100 = all killed)
Conditions: 10 µM unless noted
About 83,000 compounds went through this panel and 20% of them were active in at least one assay; those are over-represented in the sample as a whole.
One number for each entry, in %.

Below, 10 molecules whose answers are already recorded.
{"molecule": "NC(=O)c1cc(I)ccc1NC(=O)/C=C/c1ccccc1", "study-target": "DU-145 prostate", "quantity-unit": "%", "growth": -7.97}
{"molecule": "N=C(N)c1ccc(-c2ccc(-c3ccc(Cl)c(Cl)c3)s2)nc1", "study-target": "DU-145 prostate", "quantity-unit": "%", "growth": -76.5}
{"molecule": "Cc1ccc(C[P+](c2ccccc2)(c2ccccc2)c2ccccc2)cc1", "study-target": "DU-145 prostate", "quantity-unit": "%", "growth": 7.44}
{"molecule": "O=C(Nc1ccccc1O)c1ccc(CNC(=O)c2sccc2Nc2ccnc(C(F)(F)F)c2)cc1", "study-target": "DU-145 prostate", "quantity-unit": "%", "growth": 46.7}
{"molecule": "Clc1ccc2c(c1)C(c1c[nH]c3ccccc13)(c1c[nH]c3ccccc13)CCO2", "study-target": "DU-145 prostate", "quantity-unit": "%", "growth": 88}
{"molecule": "CC(=O)O[C@H]1CC2CCC3C(CC[C@@]4(C)C3C[C@H]([N+]3(C)CCCCC3)[C@@H]4OC(C)=O)[C@@]2(C)C[C@@H]1N1CCCCC1 (stereo not given in full)", "study-target": "DU-145 prostate", "quantity-unit": "%", "growth": 120}
{"molecule": "N#Cc1nc(-c2ccccc2)oc1S(=O)(=O)N1CCN(c2ccccc2)CC1", "study-target": "DU-145 prostate", "quantity-unit": "%", "growth": 107}
{"molecule": "COC(=O)[C@]12CCC(C)(C)C[C@H]1[C@H]1/C(=N/OCCc3nn[nH]n3)C[C@@H]3[C@@]4(C)CC[C@H](OC(C)=O)C(C)(C)[C@@H]4CC[C@@]3(C)[C@]1(C)CC2", "study-target": "DU-145 prostate", "quantity-unit": "%", "growth": 53.8}
{"molecule": "Oc1c(I)cc(I)cc1CNCCN(Cc1ccccn1)Cc1ccccn1", "study-target": "DU-145 prostate", "quantity-unit": "%", "growth": -74.1}
{"molecule": "CCOC(=O)C/C(=N\\Nc1cc(=O)[nH]c2ccc(Br)cc12)C(=O)OCC", "study-target": "DU-145 prostate", "quantity-unit": "%", "growth": 104}

Parameters: items (list). Returns: growth for each item.
1. Nc1nc2ccccc2c2c1S(=O)(=O)c1ccc(Cl)cc1C2=O
2. CC(=O)n1nc(C(=O)OC(C)(C)c2ccccc2)c2ccccc21
3. COC1=CC(c2ccc[nH]2)=N/C1=C\c1[nH]c(C)c(CC(=O)OCc2ccccc2)c1CCC(=O)OCc1ccccc1
4. CCCC/C=C/[C@@H]1C[C@H]1CCO

26.3
111
11.8
116

----------
System: HCC-2998 colon
Test: NCI-60 one-dose screen, 48 h (100 = growth as untreated, 0 = no growth, -100 = all killed)
Settings: 10 µM unless noted
This is part of a sample that, as a whole, favours compounds with a hit. Of some 83,000 tested, about 20% had one in any assay.
metric: growth (%)
Give bare numbers, in %.

Below, 3 compounds whose answers are already recorded.
{"compound": "Nc1ncc(-c2ccc3ncnc(Nc4cccc(Cl)c4)c3c2)cn1", "study-target": "HCC-2998 colon", "growth [%]": 60.5}
{"compound": "CCCCCCCCCCC(CN(CC)CC)C(O)c1ccccc1 (stereo unspecified)", "study-target": "HCC-2998 colon", "growth [%]": -19.4}
{"compound": "CCOC(=O)c1ccc(NC(=O)c2nc(-c3cc(OC)c(OC)c(OC)c3)n(-c3ccc(Cl)cc3)n2)cc1", "study-target": "HCC-2998 colon", "growth [%]": 107}

Parameters: items (list). Returns: growth for each item.
1. N#Cc1nc(-c2ccccc2)oc1S(=O)(=O)N1CCN(c2ccccc2)CC1
2. CCCCCC(/C=N\NC(=S)N/N=C/C(=C/c1ccccc1)CCCCC)=C\c1ccccc1

1: 102; 2: 64.6

Parameters: items (list). Returns: growth for each item.
1. COC(=O)/C=C1/SC(=Nc2cccc(OC)c2)N(CCc2c[nH]c3ccc(O)cc23)C1=O
2. COc1ccc(C(C)=O)cc1S(=O)(=O)Nc1c(N)nc(SC)[nH]c1=O
3. CN(C)CC1CCC(CN(C)C)C1=O (stereo unspecified)
4. CCOC(=O)NC(C)C

[65.1, 99, 114, 103]

Parameters: items (list). Returns: growth for each item.
1. CN1C(=O)/C(=C\c2nc([P+](c3ccccc3)(c3ccccc3)c3ccccc3)c(N3CCOCC3)o2)SC1=S
2. CCc1ncnc2c1ccn2C(C)c1ccc(OC)c(F)c1 (stereo unspecified)

1: 78; 2: 56.6

----------
Test system: COLO 205 colon
Assay: NCI-60 one-dose screen, 48 h (100 = growth as untreated, 0 = no growth, -100 = all killed)
Details: 10 µM unless noted
About 83,000 compounds went through this panel and 20% of them were active in at least one assay; those are over-represented in the sample as a whole.
metric: growth (%)
One number for each entry, in %.

{"compound": "COc1cc2c(cc1OC)C(C)N(S(N)(=O)=O)CC2 (stereo unspecified)", "quantity-unit": "%", "growth": 111}
{"compound": "COc1ccc(/C=C/C(=O)c2cccc(OCCCCOc3cccc(C(=O)/C=C/c4ccc(OC)c(OC)c4)c3)c2)cc1OC", "quantity-unit": "%", "growth": 112}
{"compound": "CN1CCc2nc3sc(C(N)=O)c(N)c3c(-c3cccs3)c2C1", "quantity-unit": "%", "growth": 7.02}

Parameters: items (list). Returns: growth for each item.
1. O=C(/C=C/c1cccc(Cl)c1)c1ccc(Nc2nc(Nc3ccc(F)cc3)nc(Nc3ccc(Cl)cc3)n2)cc1
2. COc1ccccc1CNc1c2ccccc2nc2ccccc12
3. N#CC(C#N)N=Nc1ccc(Br)cc1
4. Cc1ccc(-c2nc(N3CCCNCC3)c3oc(-c4ccccc4)nc3n2)cc1
5. COc1cc2c(c(OC)c1OC)CCC(c1cccc(C(=O)Nc3cccc(Cl)c3)c1)O2 (stereo unspecified)

1: 108; 2: 12.8; 3: -28.7; 4: -80.9; 5: 76.7
